- System: SK-MEL-2 melanoma
- experiment summary: NCI-60 one-dose screen, 48 h (100 = growth as untreated, 0 = no growth, -100 = all killed)
- setup conditions: 10 µM unless noted
- Description: Growth inhibition of the SK-MEL-2 human tumor cell line is measured as a screen for anti-cancer activity. Cells are grown in 96 well plates and exposed to the test compound for 48 hours. Compounds are tested at a single concentration, which is 10^-5 M for most compounds. The reported endpoint is percent growth (GI% or GIPRCNT), where numbers from 0 - 100% represent growth inhibition, and numbers from -100% - 0 represent cell death. For example, a value of 40 represents 60% growth inhibition. […]
Compounds without any hit were thinned out: in the full panel of roughly 83,000, 20% have a hit.
Hi there, I'd appreciate the recorded growth for every entry that follows.
Express the result in % but write the number alone.

The compound CC(=O)[C@@]1(O)CC[C@H]2[C@@H]3CC[C@@H]4CC(=O)CC[C@]4(C)[C@H]3[C@@H](O)C[C@@]21C showed growth equal to 99.7

Data point: CCOC(=O)Nc1nccs1 ; growth = 111

Documented growth of Cc1ccc(/C=N/NC(N)=S)s1 : 102

growth for CC(C)NC(=O)OCc1c(COC(=O)NC(C)C)c(-c2ccc(Cl)cc2)n2c1CCC2 is 94.4

// CCOc1ccncc1[N+](=O)[O-] : growth value = 104

Looking up CCNc1ncnc2[nH]ncc12 , I see its growth listed as 101

Sourced from PubChem BioAssay (NCI)
